Reference for the values: ChEMBL document CHEMBL5550106

So I've got IC50 readings for UniProt P00742, take a look.
Sequence (P00742 41-179 limits assumed): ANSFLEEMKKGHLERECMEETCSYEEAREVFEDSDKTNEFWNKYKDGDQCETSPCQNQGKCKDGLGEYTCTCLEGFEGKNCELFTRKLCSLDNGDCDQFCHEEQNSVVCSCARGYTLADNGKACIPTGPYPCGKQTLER
Sequence (P00742 235-488 limits assumed): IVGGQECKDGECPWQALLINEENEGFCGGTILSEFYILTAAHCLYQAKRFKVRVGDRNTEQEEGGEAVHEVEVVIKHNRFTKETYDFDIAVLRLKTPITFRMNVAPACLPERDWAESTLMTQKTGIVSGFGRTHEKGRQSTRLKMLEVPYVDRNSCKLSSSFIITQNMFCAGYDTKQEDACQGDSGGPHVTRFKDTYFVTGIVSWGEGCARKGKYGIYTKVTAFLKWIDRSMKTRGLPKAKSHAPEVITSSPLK
Numbers only here, please. The scale is µM.

Req: Given the molecule O=C(NC[C@@H]1OC(=O)N2c3ccc(N4CCOCC4=O)cc3[S+]([O-])C[C@@H]12)c1ccc(Cl)s1 (some centres not stated) , what is its reported IC50?
Resp: 0.06

Req: Name the reported IC50 value associated with the molecule `O=C(NC[C@@H]1OC(=O)N2c3ccc(N4CCOC4=O)cc3OC[C@@H]12)c1ccc(Cl)s1`
Resp: 15.7

###

# assaySummary: Intrinsic clearance in mouse liver microsomes
# Type: ADME, Microsome
# measurementConditions: read-out: CLH
endpoint: CLint scaled
State the result as a value with its unit after it.

Req: Value lookup for CLint scaled; key = `CC(=O)NC[C@H]1CN(c2ccc(N3CCC(Nc4ccc(Br)cc4)CC3)c(F)c2)C(=O)O1`
Resp: 0.208 L/h/kg

###

# Test system: MGC-803
# assaySummary: Antiproliferative activity against human MGC-803 cells assessed as reduction in cell growth by MTT assay
# Format: functional, cell-based
endpoint: IC50 (µM)
Respond numerically; units are µM and should not be typed.

Req: I have this molecule here, CC(C)c1ccc2c(c1)CCC1[C@](C)(C(=O)OCC3CN(c4ccccc4F)C(=O)O3)CCC[C@]21C (some centres undefined) , and I need its recorded IC50.
Resp: 3.82

Req: What does the record list as IC50 for CC(C)c1ccc2c(c1)CCC1[C@](C)(C(=O)OCC3CN(c4cccc(Br)c4)C(=O)O3)CCC[C@]21C (some centres undefined) ?
Resp: 3.82

Req: I'd like to know its IC50. The molecule in question is CC(C)c1ccc2c(c1)CCC1[C@](C)(C(=O)OCC(O)CNc3ccccc3)CCC[C@]21C (some centres undefined)
Resp: 7.1

Req: Give its IC50 value. Item: Cc1ccc(NCC(O)COC(=O)[C@]2(C)CCC[C@]3(C)c4ccc(C(C)C)cc4CCC23)cc1 (some centres undefined)
Resp: 7.1

###

Record form. Attribute: pIC50. Fill in for each entry.
# Tested on: MGC-803
# assaySummary: Antiproliferative activity against human MGC-803 cells assessed as reduction in cell growth by MTT assay
# Format: functional, cell-based
Scale note: pIC50 = -log10(concentration in M).

Req: Any idea what its pIC50 is? The molecule is CC(C)c1ccc2c(c1)CCC1[C@](C)(C(=O)OCC(O)CNc3ccc(Cl)cc3)CCC[C@]21C (stereo partly drawn)
Resp: 5.15

Req: pIC50 lookup needed for C#Cc1cccc(N2CC(COC(=O)[C@]3(C)CCC[C@]4(C)c5ccc(C(C)C)cc5CCC34)OC2=O)c1 (stereo partly drawn) , thanks.
Resp: 5.42

Req: Could you tell me which pIC50 is on file for COc1ccc(NCC(O)COC(=O)[C@]2(C)CCC[C@]3(C)c4ccc(C(C)C)cc4CCC23)cc1 (stereo partly drawn) ?
Resp: 5.15

Req: Tell me the measured pIC50 of CC(C)c1ccc2c(c1)CCC1[C@](C)(C(=O)OCC3CN(c4ccccc4)C(=O)O3)CCC[C@]21C (stereo partly drawn) , please.
Resp: 5.42

Req: Item under review: CC(C)c1ccc2c(c1)CCC1[C@](C)(C(=O)OCC3CN(c4ccc(Cl)cc4)C(=O)O3)CCC[C@]21C (stereo partly drawn) . Reported pIC50?
Resp: 5.42

Req: pIC50 for Cc1ccc(N2CC(COC(=O)[C@]3(C)CCC[C@]4(C)c5ccc(C(C)C)cc5CCC34)OC2=O)cc1 (stereo partly drawn) ?
Resp: 5.42

Req: # lookup: pIC50 of COc1ccc(N2CC(COC(=O)[C@]3(C)CCC[C@]4(C)c5ccc(C(C)C)cc5CCC34)OC2=O)cc1 (stereo partly drawn)
Resp: 5.42

Req: If you can, please state the reported pIC50 value of CC(C)c1ccc2c(c1)CCC1[C@](C)(C(=O)OCC(O)CNc3cccc(Br)c3)CCC[C@]21C (stereo partly drawn) .
Resp: 5.15
